Cited source: paper doi:10.1101/2025.11.04.686469

test system: THP-1 macrophages; experiment: Effect of compounds on host cell viability (MTT); assay type: cell-based; details: read-out: 24h LC50; THP1 macrophages, 24-hour incubation, MTT assay (Supplemental Table 2)
measured attribute: CC50

Nc1ccc(-n2cc(C(F)(F)F)nc2-c2ccc(Br)cc2)cc1 [Compound 193] : > 50 µM

Enquiry: Recall and state the measured CC50 for O=[N+]([O-])c1cccc(-n2nc(C(F)(F)F)cc2-c2ccc(-c3ccc(C(F)(F)F)cc3)cc2)c1 [Compound 189] .
Return: > 50 µM

Enquiry: Input CC(C)(C)OC(=O)N1CCC(Nc2ccc(-n3nc(C(F)(F)F)cc3C(F)(F)F)cc2)C1 (centres unmarked) [Compound 283] , output reported CC50.
Return: > 50 µM

Enquiry: For the compound FC(F)(F)c1cc(C2CCCCC2)n(-c2ccc(NC3CCNC3)cc2)n1 (centres unmarked) [Compound 312] , give its reported CC50.
Return: 25.5 µM

Enquiry: Annotate the compound Cc1cc(C(F)(F)F)nn1-c1ccc(NC2CCNC2)cc1 (centres unmarked) [Compound 313] with its measured CC50.
Return: > 50 µM

Enquiry: Quote CC50 reported for N#Cc1ccc(CN2CCC(Oc3ccc(-n4nc(C(F)(F)F)cc4C4CCCCC4)cc3)CC2)cc1 [Compound 373] please.
Return: > 50 µM

Enquiry: Determine its reported CC50: CC(C)C#Cc1ccc(-c2cc(C(F)(F)F)nn2-c2ccc(N)cc2)cc1 [Compound 95]
Return: > 50 µM

Enquiry: Query CC50 for Oc1ccc(CNC2CCN(c3ccc(-n4nc(C(F)(F)F)cc4C4CCCCC4)cc3)C2)cc1 (centres unmarked) [Compound 362]
Return: 20 µM

###

test system: THP-1 macrophages; test: Effect of compounds on host cell viability (MTT); assay type: cell-based; conditions: read-out: 24h LC50; THP1 macrophages, 24-hour incubation, MTT assay (Supplemental Table 2)
Reported CC50 is given for each of the following compounds.
Write down the numeric answer in µM and omit the unit.

Answered examples (3):
NC1CCN(c2ccc(-n3ccnc3-c3ccc(-c4ccccc4)cc3)cc2)C1 (stereo not shown) : 6.2
CC(C)(C)OC(=O)N1CCC(Nc2ccc(-n3nc(C(F)(F)F)cc3-c3ccccc3C(F)(F)F)cc2)C1 (stereo not shown) : 23.6
CC(=O)NCCOCCN1CCC(Oc2ccc(-n3nc(C(F)(F)F)cc3C3CCCCC3)cc2)CC1 : 29.5

Enquiry: Annotate the compound `FC(F)(F)c1ccc(-c2ccc(-c3cc(C(F)(F)F)nn3-c3ccc(NC4CCN(Cc5ccccc5)CC4)cc3)cc2)cc1` with its measured CC50.
Return: 13.2

Enquiry: Look up and state reported CC50 for `FC(F)(F)c1cc(C2CCCCC2)n(-c2ccc(NC3CN(Cc4ccccc4)C3)cc2)n1`
Return: 37.4

Enquiry: Determine from records and report CC50 for `CS(=O)(=O)c1ccc(-n2nc(C(F)(F)F)cc2-c2ccc(-c3ccc(C(F)(F)F)cc3)cc2)cc1`
Return: 45

Enquiry: Give the measured CC50 for `CC(C)(C)OC(=O)NCC(=O)Nc1ccc(-n2cc(C(F)(F)F)nc2-c2ccc(C(C)(C)C)cc2)cc1`
Return: 31.8

Enquiry: Consider the compound FC(F)(F)c1cn(-c2ccc(OC3CCNC3)cc2)c(-c2ccc(-c3ccccc3)cc2)n1 (stereo not shown) . State its measured CC50.
Return: 11.1

Enquiry: Could you please provide reported CC50 for `O=C(CNCc1ccccc1)Nc1ccc(-n2nc(C(F)(F)F)cc2C2CCCCC2)cc1` ? Thanks!
Return: 17.5

Enquiry: Quick one: give measured CC50 for CC(C)(C)OC(=O)NC1CCN(c2ccc(-n3nc(C(F)(F)F)cc3C3CCCCC3)cc2)C1 (stereo not shown)
Return: 9.5
